Data credit: ChEMBL document CHEMBL4477241

Recorded pIC50 for the following molecules
# target-or-test-system: Histone-lysine N-methyltransferase EZH2 (Homo sapiens, UniProt O75530+Q15022+Q15910)
# Sequence (Q15910 whole entry, the tested form may be a part, one chain of several): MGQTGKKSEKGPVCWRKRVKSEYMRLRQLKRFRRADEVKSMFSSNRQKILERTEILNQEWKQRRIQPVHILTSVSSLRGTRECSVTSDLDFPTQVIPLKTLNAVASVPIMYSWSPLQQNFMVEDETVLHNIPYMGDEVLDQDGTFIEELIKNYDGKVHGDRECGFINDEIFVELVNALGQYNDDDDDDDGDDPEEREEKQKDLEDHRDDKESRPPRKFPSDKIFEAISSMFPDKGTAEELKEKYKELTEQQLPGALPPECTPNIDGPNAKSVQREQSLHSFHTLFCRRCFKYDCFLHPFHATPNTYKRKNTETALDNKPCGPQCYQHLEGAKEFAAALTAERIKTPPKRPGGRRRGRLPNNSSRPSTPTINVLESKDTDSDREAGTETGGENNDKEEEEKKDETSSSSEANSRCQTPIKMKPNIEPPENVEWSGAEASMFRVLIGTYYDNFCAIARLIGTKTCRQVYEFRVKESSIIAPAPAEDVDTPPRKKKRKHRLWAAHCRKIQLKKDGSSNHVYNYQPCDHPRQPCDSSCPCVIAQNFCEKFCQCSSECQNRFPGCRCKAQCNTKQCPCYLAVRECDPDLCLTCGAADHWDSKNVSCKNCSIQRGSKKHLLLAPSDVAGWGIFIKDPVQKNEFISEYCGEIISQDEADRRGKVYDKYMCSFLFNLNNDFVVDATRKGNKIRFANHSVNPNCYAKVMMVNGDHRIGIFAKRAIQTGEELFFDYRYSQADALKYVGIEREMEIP
# method-summary: Inhibition of EZH2 histone methyltransferase activity of EZH2/EED/SUZ12 protein complex (unknown origin) using histone H3 peptide as substrate (21 to 44 residues) in presence of [3H]-S-adenosylmethionine after 2 hrs by scintillation proximity assay
pIC50: −log10 of the molar value.

molecule	pIC50
CCCc1cc(C)[nH]c(=O)c1CNC(=O)c1cc(-c2ccc(N3CCN(C(C)C)CC3)nc2)cc2c1cnn2CCC1CCCCC1	< 5.90
CCCc1cc(C)[nH]c(=O)c1CNC(=O)c1cc(-c2ccc(N3CCN(C(C)C)CC3)nc2)cc2c1cnn2C1CCCCC1	> 8.00
CCCc1cc(C)[nH]c(=O)c1CNC(=O)c1nn(C(C)C)c2cc(-c3ccc(N4CCN(C(C)C)CC4)nc3)ccc12	< 5.30
CCCCC(CC)Cn1ncc2c(C(=O)NCc3c(CCC)cc(C)[nH]c3=O)cc(-c3ccc(N4CCN(C(C)C)CC4)nc3)cc21 (centres undefined)	5.95

====

# target-or-test-system: Histone-lysine N-methyltransferase EZH2 (Homo sapiens, UniProt O75530+Q15022+Q15910)
# method-summary: Inhibition of EZH2 histone methyltransferase activity of EZH2/EED/SUZ12 protein complex (unknown origin) using histone H3 peptide as substrate (21 to 44 residues) in presence of [3H]-S-adenosylmethionine after 2 hrs by scintillation proximity assay
pIC50: −log10 of the molar value.

smiles-string	pIC50
CCCc1cc(C)[nH]c(=O)c1CNC(=O)c1cc(NC2CCNCC2)cc2c1cnn2C(C)C	7.59
CC(C)N1CCN(c2ccc(-c3cc(C(=O)NC4CC(C)(C)NC(C)(C)C4)c4cnn(C(C)C)c4c3)cn2)CC1	< 5.00
CCCc1cc(C)[nH]c(=O)c1CNC(=O)c1cc(-c2ccc(N3CCN(C(C)C)CC3)nc2)cc2c1cnn2CC1CCCCC1	6.16
Cc1cc(C(C)(C)C)[nH]c(=O)c1CNC(=O)c1cc(-c2ccc(N3CCN(C(C)C)CC3)nc2)cc2c1cnn2C(C)C	< 5.00
CCCc1cc(C)[nH]c(=O)c1CNC(=O)c1cc(-c2ccccn2)cc2c1cnn2C(C)C	7.62
CCCCc1cc(C)[nH]c(=O)c1CNC(=O)c1cc(-c2ccc(N3CCN(C(C)C)CC3)nc2)cc2c1cnn2C(C)C	> 8.00
CCCc1cc(C)[nH]c(=O)c1CNC(=O)c1cccn2c(-c3ccc(N4CCN(C(C)C)CC4)nc3)cnc12	< 5.30
CCCc1cc(C)[nH]c(=O)c1CNC(=O)c1cc(-c2ccc(N3CCN(C(C)C)CC3)nc2)cc2c1cnn2CC1CCCC1	6.83
CCCc1cc(C)[nH]c(=O)c1CNC(=O)c1cc(-c2ccc(N3CCN(C(C)C)CC3)nc2)cc2c1cnn2Cc1ccccc1	6.55
CCCc1cc(C)[nH]c(=O)c1CNC(=O)c1cc(-c2ccc(F)cc2)cc2c1cnn2C(C)C	7.32
CC(C)N1CCN(c2ccc(-c3cc(C(=O)NCc4ccc[nH]c4=O)c4cnn(C(C)C)c4c3)cn2)CC1	< 5.30
Cc1cc(-c2ccccc2)[nH]c(=O)c1CNC(=O)c1cc(-c2ccc(N3CCN(C(C)C)CC3)nc2)cc2c1cnn2C(C)C	< 5.00
CCCc1cc(C)[nH]c(=O)c1CNC(=O)c1cc(-c2ccc(N3CCNCC3)nc2)cc2c1cnn2C(C)C	> 8.00
CCCc1cc(C)[nH]c(=O)c1CNC(=O)c1cc(N2CCNCC2)cc2c1cnn2C(C)C	7.77
Cc1ncc(CNC(=O)c2cc(-c3ccc(N4CCN(C(C)C)CC4)nc3)cc3c2cnn3C(C)C)c(=O)[nH]1	< 5.64
CCCc1cc(C)[nH]c(=O)c1CNC(=O)c1cc(-c2ccc(N3CCN(C(C)C)CC3)nc2)cc2c1cnn2CC1CCC1	7.24
CCCc1cc(C)[nH]c(=O)c1CNC(=O)c1cc(-c2ccc(N3CCN(C(C)C)CC3)nc2)cc2c1cnn2C1CCCC1	> 8.00
CCCc1cc(C)[nH]c(=O)c1CNC(=O)c1cc(-c2ccc(N3CCN(C(C)C)CC3)nc2)cc2c1cnn2C(C)(C)C	> 8.00
CCCc1cc(C)[nH]c(=O)c1CNC(=O)c1cc(Br)cc2c1cnn2C(C)C	7.46
Cc1cc(C2CCCC2)c(CNC(=O)c2cc(-c3ccc(N4CCN(C(C)C)CC4)nc3)cc3c2cnn3C(C)C)c(=O)[nH]1	> 8.00
CCCc1cc(C)[nH]c(=O)c1CNC(=O)c1cnn2c(-c3ccc(N4CCN(C(C)C)CC4)nc3)cccc12	< 5.30
CC(C)N1CCN(c2ccc(-c3cc(C(=O)NCc4cnc[nH]c4=O)c4cnn(C(C)C)c4c3)cn2)CC1	< 5.00
CCCc1cc(C)[nH]c(=O)c1CNC(=O)c1cc(-c2ccc(N3CCN(C(C)C)CC3)nc2)cc2c1cnn2C(C)C	> 8.00

====

# target-or-test-system: Histone-lysine N-methyltransferase EZH2 (Homo sapiens, UniProt O75530+Q15022+Q15910)
# method-summary: Inhibition of EZH2 histone methyltransferase activity of EZH2/EED/SUZ12 protein complex (unknown origin) using histone H3 peptide as substrate (21 to 44 residues) in presence of [3H]-S-adenosylmethionine after 2 hrs by scintillation proximity assay
pIC50: −log10 of the molar value.
readout-type: pIC50

smiles-string	target-or-test-system	readout-type	result
Cc1cc(CC(C)C)c(CNC(=O)c2cc(-c3ccc(N4CCN(C(C)C)CC4)nc3)cc3c2cnn3C(C)C)c(=O)[nH]1	Histone-lysine N-methyltransferase EZH2 (Homo sapiens, UniProt O75530+Q15022+Q15910)	pIC50	> 8.00
CCCc1cc(C)[nH]c(=O)c1CNC(=O)c1cn2ccc(-c3ccc(N4CCN(C(C)C)CC4)nc3)cc2n1	Histone-lysine N-methyltransferase EZH2 (Homo sapiens, UniProt O75530+Q15022+Q15910)	pIC50	< 5.00
CCCc1cc(C)[nH]c(=O)c1CNC(=O)c1cc(-c2ccc(N3CCN(CC)CC3)nc2)cc2c1cnn2C(C)C	Histone-lysine N-methyltransferase EZH2 (Homo sapiens, UniProt O75530+Q15022+Q15910)	pIC50	> 8.00
Cc1[nH]c(=O)[nH]c(=O)c1CNC(=O)c1cc(-c2ccc(N3CCN(C(C)C)CC3)nc2)cc2c1cnn2C(C)C	Histone-lysine N-methyltransferase EZH2 (Homo sapiens, UniProt O75530+Q15022+Q15910)	pIC50	< 5.00
